- Test system: vasopressin induced T-wave elevation
- method: Anti-anginal effect: suppression of vasopressin induced T-wave elevation in anesthetized guinea pigs
- Format: in vivo, guinea pig
- applied-conditions: i.v., 30 seconds prior to vasopressin 1 I.U./ml/kg
# reported Dose required for 50% inhibition of T-wave (ED50) (B); entries follow
API: value field is a number in µg/kg; no unit string.

[
  {
    "compound": "O=C(OCc1cccnc1)c1ccc2c(c1)no[n+]2[O-]",
    "assayed-system": "vasopressin induced T-wave elevation",
    "result-unit": "µg/kg",
    "value-reported": 372.85
  },
  {
    "compound": "COCCOC(=O)c1ccc2c(c1)no[n+]2[O-]",
    "assayed-system": "vasopressin induced T-wave elevation",
    "result-unit": "µg/kg",
    "value-reported": 337.90
  },
  {
    "compound": "CC1(C)OCC(COC(=O)c2ccc3c(c2)no[n+]3[O-])O1 (racemic)",
    "assayed-system": "vasopressin induced T-wave elevation",
    "result-unit": "µg/kg",
    "value-reported": 492.00
  }
]

Consider the record given below.
QUERY: Dose required for 50% inhibition of T-wave (ED50) (B) of O=C(OCCN1CCCC1=O)c1ccc2c(c1)no[n+]2[O-] on vasopressin induced T-wave elevation?
RESULT: 675.61
